Measured Raw fluorescence intensity of individual entries
# assayedSystem: VvelCSP1 (Vespa velutina auraria, UniProt A0A384ZVP9)
# Sequence (A0A384ZVP9 entry or part of it): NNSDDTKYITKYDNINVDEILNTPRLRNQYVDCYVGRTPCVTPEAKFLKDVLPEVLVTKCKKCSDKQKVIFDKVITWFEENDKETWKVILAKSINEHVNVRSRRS
# assaySummary: Fluorescence competitive binding assay (1-NPN probe) with VvelCSP1
# conditionNotes: VvelCSP1, chemical 2 μM
# Procedure: Fluorescence competitive binding assays were employed to characterize the interactions between VvelCSPs and 13 volatiles shared between the elaiosomes of S. tuberosa and the cuticular hydrocarbons of honeybees. […] Binding parameters for CSP-NPN were determined by titration: 2 mL of CSP solution (2 μM) was titrated with 1-NPN (final concentrations: 2−24 μM). Maximum fluorescence intensity was recorded, and the dissociation constant was calculated. […]

{"chemicalStructure": "CCCCCCCCCCCCCCCCCCCCCCCCCC", "Raw fluorescence intensity": 135.79}
{"chemicalStructure": "CCCCCCCCCCCCCCCCCCCCCCCC", "Raw fluorescence intensity": 176.79}
{"chemicalStructure": "CCCCCCCCCCCCCCCCCCCCC", "Raw fluorescence intensity": 152.31}
{"chemicalStructure": "CCCCCCCCCCCCCCCCCCCCCCCCCCCCC", "Raw fluorescence intensity": 181.17}
{"chemicalStructure": "CCCCCCCCCCCCCCCCCCCCCCC", "Raw fluorescence intensity": 140.89}
{"chemicalStructure": "CCCCCCCCCCCCCCCCCCCCCCCCCCC", "Raw fluorescence intensity": 159.00}
{"chemicalStructure": "CCCCCCCCCCCCCCCCCCCCCC", "Raw fluorescence intensity": 197.76}
{"chemicalStructure": "CCCCCCCC/C=C\\CCCCCCCCCCCCC", "Raw fluorescence intensity": 176.56}
{"chemicalStructure": "CCCCCCCCCCCCCCCCCCCCCCCCCCCCCC", "Raw fluorescence intensity": 180.51}
{"chemicalStructure": "CCCCCCCCCCCCCCCCCCC", "Raw fluorescence intensity": 178.27}
{"chemicalStructure": "CCCCCCCCCCCCCCCCCCCCCCCCCCCC", "Raw fluorescence intensity": 162.06}
{"chemicalStructure": "CCCCCCCCCCCCCCCCCCCCCCCCC", "Raw fluorescence intensity": 165.83}
{"chemicalStructure": "CCCCCCCCCCCCCCCCCCCC", "Raw fluorescence intensity": 206.27}

---

# assayedSystem: VvelCSP1 (Vespa velutina auraria)
# assaySummary: Fluorescence competitive binding assay (1-NPN probe) with VvelCSP1
# conditionNotes: VvelCSP1, chemical 16 μM
measuredEndpoint: Raw fluorescence intensity

{"chemicalStructure": "CCCCCCCCCCCCCCCCCCCCCC", "reading": 153.17}
{"chemicalStructure": "CCCCCCCCCCCCCCCCCCCCCCCC", "reading": 117.42}
{"chemicalStructure": "CCCCCCCCCCCCCCCCCCCCC", "reading": 125.86}
{"chemicalStructure": "CCCCCCCCCCCCCCCCCCCCCCCCCC", "reading": 89.96}

---

# System: VvelCSP4
# assaySummary: Fluorescence competitive binding assay (1-NPN probe) with VvelCSP4
# Design: species or system Vespa velutina auraria
# conditionNotes: VvelCSP4, chemical 16 μM

{"chemicalStructure": "CCCCCCCCCCCCCCCCCCCC", "Raw fluorescence intensity": 125.62}
{"chemicalStructure": "CCCCCCCC/C=C\\CCCCCCCCCCCCC", "Raw fluorescence intensity": 83.78}
{"chemicalStructure": "CCCCCCCCCCCCCCCCCCCCCCC", "Raw fluorescence intensity": 107.68}
{"chemicalStructure": "CCCCCCCCCCCCCCCCCCCCCCCCCC", "Raw fluorescence intensity": 133.13}
{"chemicalStructure": "CCCCCCCCCCCCCCCCCCCCCCCC", "Raw fluorescence intensity": 122.27}
{"chemicalStructure": "CCCCCCCCCCCCCCCCCCCCCCCCCCCCCC", "Raw fluorescence intensity": 135.24}
{"chemicalStructure": "CCCCCCCCCCCCCCCCCCCCCCCCCCCCC", "Raw fluorescence intensity": 125.16}
{"chemicalStructure": "CCCCCCCCCCCCCCCCCCCCCCCCCCC", "Raw fluorescence intensity": 125.52}
{"chemicalStructure": "CCCCCCCCCCCCCCCCCCCCCCCCCCCC", "Raw fluorescence intensity": 154.11}

---

# assayedSystem: VvelCSP1 (Vespa velutina auraria, UniProt A0A384ZVP9)
# assaySummary: Fluorescence competitive binding assay (1-NPN probe) with VvelCSP1
# conditionNotes: VvelCSP1, chemical 0.5 μM
Measured Raw fluorescence intensity of individual entries

{"compound": "CCCCCCCCCCCCCCCCCCCCCCCCCCCC [Octacosane]", "assayedSystem": "VvelCSP1 (Vespa velutina auraria, UniProt A0A384ZVP9)", "Raw fluorescence intensity": 200.77}
{"compound": "CCCCCCCCCCCCCCCCCCCC [Eicosane]", "assayedSystem": "VvelCSP1 (Vespa velutina auraria, UniProt A0A384ZVP9)", "Raw fluorescence intensity": 246.85}
{"compound": "CCCCCCCCCCCCCCCCCCCCCCCCCCC [Heptacosane]", "assayedSystem": "VvelCSP1 (Vespa velutina auraria, UniProt A0A384ZVP9)", "Raw fluorescence intensity": 222.51}
{"compound": "CCCCCCCCCCCCCCCCCCCCCC [Docosane]", "assayedSystem": "VvelCSP1 (Vespa velutina auraria, UniProt A0A384ZVP9)", "Raw fluorescence intensity": 246.77}

---

# assayedSystem: VvelCSP1 (Vespa velutina auraria)
# assaySummary: Fluorescence competitive binding assay (1-NPN probe) with VvelCSP1
# conditionNotes: VvelCSP1, chemical 4 μM
Measured Raw fluorescence intensity of individual entries

{"chemicalStructure": "CCCCCCCC/C=C\\CCCCCCCCCCCCC", "Raw fluorescence intensity": 164.98}
{"chemicalStructure": "CCCCCCCCCCCCCCCCCCCCCC", "Raw fluorescence intensity": 171.56}
{"chemicalStructure": "CCCCCCCCCCCCCCCCCCCCCCCCCCC", "Raw fluorescence intensity": 136.99}
{"chemicalStructure": "CCCCCCCCCCCCCCCCCCCCCCCCCCCC", "Raw fluorescence intensity": 146.64}
{"chemicalStructure": "CCCCCCCCCCCCCCCCCCCCCCCCCC", "Raw fluorescence intensity": 114.55}
{"chemicalStructure": "CCCCCCCCCCCCCCCCCCCC", "Raw fluorescence intensity": 199.36}
{"chemicalStructure": "CCCCCCCCCCCCCCCCCCCCCCCCCCCCC", "Raw fluorescence intensity": 168.33}

---

# assayedSystem: VvelCSP1 (Vespa velutina auraria)
# assaySummary: Fluorescence competitive binding assay (1-NPN probe) with VvelCSP1
# conditionNotes: VvelCSP1, chemical 12 μM

{"chemicalStructure": "CCCCCCCCCCCCCCCCCCCCC", "Raw fluorescence intensity": 127.58}
{"chemicalStructure": "CCCCCCCCCCCCCCCCCCCCCCCCCCCCCC", "Raw fluorescence intensity": 139.39}
{"chemicalStructure": "CCCCCCCCCCCCCCCCCCCCCCCC", "Raw fluorescence intensity": 122.98}
{"chemicalStructure": "CCCCCCCCCCCCCCCCCCCCCCCCC", "Raw fluorescence intensity": 124.70}
{"chemicalStructure": "CCCCCCCCCCCCCCCCCCCC", "Raw fluorescence intensity": 172.10}
{"chemicalStructure": "CCCCCCCCCCCCCCCCCCCCCCCCCC", "Raw fluorescence intensity": 93.92}
{"chemicalStructure": "CCCCCCCCCCCCCCCCCCC", "Raw fluorescence intensity": 140.37}

---

# assayedSystem: VvelCSP1 (Vespa velutina auraria)
# assaySummary: Fluorescence competitive binding assay (1-NPN probe) with VvelCSP1
# conditionNotes: VvelCSP1, chemical 1 μM
Measured Raw fluorescence intensity of individual entries

{"chemicalStructure": "CCCCCCCCCCCCCCCCCCCCCCCCCCCCCC", "Raw fluorescence intensity": 196.09}
{"chemicalStructure": "CCCCCCCC/C=C\\CCCCCCCCCCCCC", "Raw fluorescence intensity": 200.54}
{"chemicalStructure": "CCCCCCCCCCCCCCCCCCCCCCCCCCC", "Raw fluorescence intensity": 205.55}
{"chemicalStructure": "CCCCCCCCCCCCCCCCCCCCCCCCCCCCC", "Raw fluorescence intensity": 197.03}

---

# assayedSystem: VvelCSP1 (Vespa velutina auraria, UniProt A0A384ZVP9)
# assaySummary: Fluorescence competitive binding assay (1-NPN probe) with VvelCSP1
# conditionNotes: VvelCSP1, chemical 6 μM
Measured Raw fluorescence intensity of individual entries

{"chemicalStructure": "CCCCCCCCCCCCCCCCCCCCCCCCC", "Raw fluorescence intensity": 135.17}
{"chemicalStructure": "CCCCCCCCCCCCCCCCCCCCC", "Raw fluorescence intensity": 134.83}
{"chemicalStructure": "CCCCCCCCCCCCCCCCCCCCCCCCCCC", "Raw fluorescence intensity": 130.11}
{"chemicalStructure": "CCCCCCCCCCCCCCCCCCCCCCCCCCCCCC", "Raw fluorescence intensity": 152.93}
{"chemicalStructure": "CCCCCCCCCCCCCCCCCCCCCC", "Raw fluorescence intensity": 161.14}
{"chemicalStructure": "CCCCCCCCCCCCCCCCCCCCCCCCCCCCC", "Raw fluorescence intensity": 152.52}
{"chemicalStructure": "CCCCCCCCCCCCCCCCCCCCCCCC", "Raw fluorescence intensity": 144.05}
{"chemicalStructure": "CCCCCCCCCCCCCCCCCCCC", "Raw fluorescence intensity": 183.72}
